Data provenance is patent US20210380703A1.

target: human Fc (human); assay: ELISA, negative control
QUANTITY_NAME: optical density

Worked cases, optical density given:
BINDER	optical density
374_G11 (antibody, V domains shown) VH: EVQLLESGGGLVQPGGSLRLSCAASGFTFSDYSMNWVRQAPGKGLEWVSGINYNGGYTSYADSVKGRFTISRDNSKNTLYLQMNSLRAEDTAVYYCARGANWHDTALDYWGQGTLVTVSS VL: DIQMTQSPSSLSASVGDRVTITCRASQSIISYVNWYQQKPGKAPKLVIYAATSLASGVPSRFSGSGSGTDFTLTISSLQPEDFATYYCQQSYDSPLTFGGGTKVEIK	0.179 OD
374_B01 (antibody, V domains shown) VH: EVQLLESGGGLVQPGGSLRLSCAASGFTFDSYGMHWVRQAPGKGLEWVAGINYNSGYTSYADSVKGRFTISRDNSKNTLYLQMNSLRAEDTAVYYCARAATWHDTHLDYWGQGTLVTVSS VL: DIQMTQSPSSLSASVGDRVTITCRASQSILSYLNWYQQKPGKAPKLLIYAASSLQSGVPSRFSGSGSGTDFTLTISSLQPEDFATYYCQQSYDSPLTFGGGTKVEIK	0.173 OD

The record that follows has no optical density shown yet.
Query :: For the binder 371_C02 (antibody, V domains shown) VH: EVQLLESGGGLVQPGGSLRLSCAASGFTFDSYGMHWVRQAPGKGLEWVAGINYNSGYTGYADSVKGRFTISRDNSKNTLYLQMNSLRAEDTAVYYCARAATWHDTHLDYWGQGTLVTVSS VL: DIQMTQSPSSLSASVGDRVTITCRASQSILTYVNWYQQKPGKAPKLLIYAASSLQSGVPSRFSGSGSGTDFTLTISSLQPEDFATYYCQQSYDTPLTFGGGTKVEIK , what optical density is on record?
Result :: 0.372 OD
